Assay: yeast display, Sf9 membrane polyspecificity reagent, FACS + sequencing; frameworks hold sequencing errors
measured-parameter: polyreactivity (PSR sort gate)

Example results:
seq-text	polyreactivity (PSR sort gate)
QVQLVESGGGLVQAGGSLRLSCAASGSTFRWNAMGWYTPAPGKERELVAAITSSGSTYYADSVKGRFTISRDNAKNTVYLQMNSLNPEDTAVYSCAGRANGYWNTYELDYWGQGIQVTVSS	low polyreactivity
QVQLVESGGGLVQAGGSLRLSCAASGRILYIYAMGWYRQAPGKERELVASISWTDGSTYYADSVKGRFTISRDNAKNTVYLQMNSLKPEDTAVYYCNAAYYYYWDLKKYNYWGQGTQVTVSS	low polyreactivity
QVQLVESGGGLVQAGGSLRLSCDASGSTFISYAMGWFRQAPGKERELVAAISSGGGRTSYADSVKGRFTISRDNEKNTVYLQMNSLKPEDTAVYYCNTKKLPYAEGYWGQGTQVTVSS	low polyreactivity
QVHLVESCGGLVQAGGSLRLSCAASGITFWNYAMGRYRQAPGKETELVAAISYSGGSTYYADSVKGRFTISRDNAKNTFYLQMNSLKPEDTGVYYCAATLPTNWVRYDYWGQGTQVTVSS	low polyreactivity
QVQLVESGGGLVQAGGTLRLSCAASGRTFYGNAMGWYRQAPGKERELVAVITRRGDTTYYADSVKGRFTISRDNAKNTVYLQMNSLKPEDTAVYYCAASYTGGYTPRQKYNRMGYWGQGTQVSVSS	high polyreactivity

Next sequence, please.
### Prompt Entry under review: QVKLVESGGGLVQAGGSLRLSCAASGNIFRRYTMGWYRQAPGKERELVAAISSGGSTNYADSEKGRFTISRDNAKNTVYLQMNSLKPEDTAVYYCAVSYRSFRYYWERYYSWGQGTQVTVSS . Reported polyreactivity (PSR sort gate)?
### Response high polyreactivity

###

Test: yeast display, Sf9 membrane polyspecificity reagent, FACS + sequencing; frameworks hold sequencing errors
measured-parameter: polyreactivity (PSR sort gate)

seq-text	polyreactivity (PSR sort gate)
QVQLVESGGGLVQAGGSHRLSCAASGSIFSTYAMGWYRQAPGKERELVAAITSDGTYADSVKGRFTISRDNARNTVYLQMNSLKPEDTAVYYCAAYYPYTRHGDYWGQGTQVTVSS	low polyreactivity
QVQLVESGGGLVQAGGSLRLSCAASGYIFHSYMGSYRQAPGKETELVAAITSGGSTYYADSVKGRFTISRDNAKNTFFLKMNSLKPEDTAVYYCGAGWWYYLHMDYWGQGTQVTVSS	high polyreactivity
QVQLVESGGGLVQAGGSLRLSCAASGITLDRYAMGWYRQAPGKERELVAAISRSTTSTYYADSVKGRFTISRDNAKNTVYLQMNSLKREDTAVYYCATRTYRVDPEYGYWGQGTQVTVSS	high polyreactivity
QVKLVESGGGLVQAGGSLRLSCPASGSTFVLNAMGWYRQAPGKERELVAAITWSGASTYYADSVKGRFTISRDNAKNTVYLQMNSLKPEDTAVYYCANDIPTDYKDVNYWGQGTQVTVSS	low polyreactivity
QVPLVESGGGLVQAGGSLRLSCAASGSTFVRYAMGWYRQAPGKERELVAGISRVGNTYYADSVKGRFTISRDNAKNTVYLQMNSLKPEDTAVYYCARSQAVYDGWFAKFGYWGQGTQVTVSS	high polyreactivity
QVHLVESGGGLVQAAGILRLSSAPSGSIFPYYAMGWYRQAPGKEREFVAAINYAGGSTYYADSVKGRFTISRDNAKNTVYLQMNSLKPEDTAVYYCNARTFGPNGKHRYGYWGQGTQVTVSS	high polyreactivity

### Prompt Entry under review: QVQLVESGGGLVQAGGSLRLSCAASGSTSTYYAMGWYRQAPGKERELVAAITLGAGRTYADSVKGRFTISRDNAKNTVYLQMNSLKPEDTAVYYCAADSHIDHGKWAYDYWGQGTQVTVSS . Reported polyreactivity (PSR sort gate)?
### Response low polyreactivity

### Prompt Next up: QVQLVESGGGLVQAGGTLRLSCAASGRTFNAYPMGWYRQAPGKERELVAAITSSGTSTYYADSVKGRFTISRDNAKNTVYLQMNSLKPEDTAVYYCAAPWGYWGQCTQVTVSS
### Response low polyreactivity

### Prompt Next up: PVQLVESGGGLVQAGGSLRLSCAASGRTFLVYSMGWYRQAPGKERELVAAISNGGSTNYADSVKGRFTISRDNAKKTVYLQMNSLKPEDTALYDCATRIHKWYYYWGQGTQVTVSS
### Response high polyreactivity

### Prompt Next up: QVQLVESGGGLVQAGGSLRLSCAASGRIFYYYAMGWYRQAPGKERELVATISRSGGSTYYADSVKGRFTISRDNAKNTVYLQMNSLKPEDTAVYYCAAGYGPSGYTRYYWGQGTQVTVSS
### Response high polyreactivity

### Prompt Next up: QVQLVESGGGLVQAGGSLRLSCAASGIISAGYAMGWYRQAPGKERELVAAISTSGTSTYYADSVKGRFTISRDNAKNTVYLQMNSLKPEDTAVYYCAYTYYYGVGYYYWGQGTQVTVSS
### Response low polyreactivity
